Test: endothelial E-selectin expression blockers – imaging, HUVEC, immunofluorescence, MLSMR starter and 10KST1 sets, primary screen (AID 487);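 note: signal is fraction of cell area covered by stained E-selectin grains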
Conditions: HUVEC TNFalpha-induced E-selectin immunofluorescence imaging, at 2 µM; active compounds read high

Compound	Unit Name	inhibition
Nc1cc(C(=O)O)ccc1Nc1ccc(F)c(F)c1	%	6.9
CSC1=C(C#N)C(c2ccc(C)cc2)C2=C(CCCC2=O)N1 (configuration not stated)	%	17.3
ON=C1/C(=N\O)CC2(C/C1=N/O)OCCO2	%	7.1
COC(=O)Cn1c(CCS(=O)(=O)c2ccc(C)cc2)nc2ccccc21	%	-69.5
Cc1ccc(-n2nnnc2SCC(=O)N2CCN(C(=O)c3ccco3)CC2)c(C)c1	%	-5.5
Cc1nc(-c2cccc(-c3noc(C)n3)c2)no1	%	11.4
COc1cc2c(cc1OC)-c1cc(OCc3cccnc3)nc(=O)n1CC2	%	-49
c1ccc(-c2nnc(SCc3nc4ccccc4[nH]3)o2)cc1	%	34.3
COc1ccc(-n2c(=O)cc(N3CCN(Cc4ccccc4)CC3)[nH]c2=O)cc1	%	26.6
O=C(Nc1ccc(N2CCCC2)cc1)c1ccc(Br)o1	%	-59.6
CCCn1c2c(c(O)c(C(=O)NC)c1=O)CCCC2	%	-40.9
CN(C)CCNc1oc(-c2ccccc2F)nc1C#N	%	-40
c1ccc2c(SCc3cn4cccnc4n3)ncnc2c1	%	6.3
CC(C)N(C=O)C1(C(=O)NC2CCCCC2)CCCCC1	%	-9.4
COc1cccc(OC)c1C(=O)N1CCN(S(=O)(=O)c2ccccc2)CC1	%	-13.1
COC(=O)CCCCC(=O)C1C(=O)CC(C)(C)C(C(=O)OC)C1=O (configuration not stated)	%	-1.3
COc1ccc(CCNC(=O)c2cnn3ccccc23)c(OC)c1OC	%	-59.3
O=S(=O)(c1ccc(OCC(O)CN2CCC(Cc3ccccc3)CC2)cc1)N1CCOCC1 (configuration not stated)	%	-22.7
O=C(Nc1c(-c2ccccc2)nc2ccccn12)c1ccco1	%	13.2
CC1CCC(NC(=O)C2CCN(c3cnccn3)CC2)CC1 (configuration not stated)	%	-108
CCOC(=O)c1c(NC(=O)OC)sc2c1CCC2	%	-35.7
Cc1onc(-c2ccccc2)c1C(=O)NCc1cccnc1	%	-22.8
CC(=O)N1CCc2cc(S(=O)(=O)NCCC3=CCCCC3)ccc21	%	-71.2
O=C(c1ccco1)N1CCN(c2nc(C(F)(F)F)nc3c2nnn3Cc2ccccc2)CC1	%	-10.1
O=C1C2CCCN2C(c2ccccc2)N1c1ccc(Cl)cc1 (configuration not stated)	%	-25.3
COc1cccc(NS(=O)(=O)c2cc(C)sc2C)c1	%	-57
O=C(Nc1ccc2c(c1)OCO2)C(c1ccccc1)N1CCC2(CC1)OCCO2 (configuration not stated)	%	23.5

----------
Assay: TLR3 IRF3 reporter activation blockers – cell-based, poly I:C stimulus, luciferase, 10K MLSCN set, primary screen (AID 602277)
Settings: HEK293-TLR3 RL24 IRF3 luciferase reporter, at 10 µM, active compounds read high
Property Name: inhibition (%)

Molecule	Property Name	Unit Name	Meas Value
O=C(COC(=O)C1=COCCO1)Nc1ccccc1Oc1ccccc1	inhibition	%	8.4
CC(C)OC(=O)C1C2C=CC3(CN(Cc4cccs4)C(=O)C13)O2 (centres undefined)	inhibition	%	32.2
CN(C)S(=O)(=O)Nc1ccccc1C(N)=O	inhibition	%	11.7
CCOC(=O)c1cc2ccc(OC)c(OC)c2c(=O)s1	inhibition	%	-12.5
COc1cccc(-n2nnnc2SCC(=O)NCc2ccco2)c1	inhibition	%	21.4
Fc1ccc(-c2nnc(CN3CCN(c4ncc(C(F)(F)F)cc4Cl)CC3)o2)cc1	inhibition	%	-7.66
Cc1cccc(-n2ncc3c(NCc4ccccn4)ncnc32)c1	inhibition	%	-129
COc1ccccc1C(=O)Nc1ccccc1C(=O)N1CCCC1	inhibition	%	17
CCOC(=O)c1[nH]c(C)c(C(=O)Nc2ccc(C)cc2C)c1C	inhibition	%	16.3
C=Cn1c(N2CCOCC2)nc2c1c(=O)[nH]c(=O)n2C	inhibition	%	20.4
CCCOC(=O)C1[C@H]2C(=O)N(CCCOC)C[C@]23C=C[C@H]1O3 (some centres undefined)	inhibition	%	15.6
COc1cccc(C(c2nnnn2Cc2ccccc2)N2CCN(C(=O)c3ccco3)CC2)c1OC (centres undefined)	inhibition	%	11.2
c1ccc(-c2nc3cnccn3c2Nc2ccc3c(c2)OCCO3)cc1	inhibition	%	11.5
O=C(NCCCn1ccnc1)c1csc2ccccc12	inhibition	%	27.4
Oc1c(Cl)cc(Cl)c2c1NCCC2	inhibition	%	31.8
Cc1cc(NC(=O)C(C)(C)C)no1	inhibition	%	20.8
O=c1c2ccccc2nc(SCc2nc(-c3ccccc3)no2)n1-c1ccc(F)cc1	inhibition	%	39.7
Cc1nc(-c2cccc(-c3noc(C)n3)c2)no1	inhibition	%	-3.56
COc1ccc(S(=O)(=O)N(C)c2ccc(C(=O)N3CCOCC3)cc2)cc1	inhibition	%	16.7
c1ccc(CCc2nn3c(Cn4cnc5ccccc54)nnc3s2)cc1	inhibition	%	-3.65
O=C(Cn1c(NCCO)nc2ccccc21)c1ccccc1	inhibition	%	29.4
CSc1ccccc1NC(=O)CN(Cc1ccccc1)S(C)(=O)=O	inhibition	%	19.7
O=C(COc1ccc(F)cc1)Nc1ccc(-n2cnnn2)cc1	inhibition	%	1.26
Cc1cc(C)nc(SCc2nnc(SCC(=O)Nc3ncc(C)s3)n2Cc2ccco2)n1	inhibition	%	11.7

----------
Biological target: Alpha-2C adrenergic receptor (Homo sapiens)
Assay: compounds altering alpha2C-coupled GIRK flux – cell-based, HEK293 alpha2C/GIRK1/2, thallium flux, primary screen (AID 624);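 note: slope of fluorescence ratio to pre-addition baseline per second over 15 to 24 s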
Conditions: thallium flux BTC fluorescence, at 10 µM, actives lie on both sides

Compound	Subject Of Test	slope
O=C(c1cccnc1)N1CCN(C(=O)c2ccccc2F)CC1	Alpha-2C adrenergic receptor (Homo sapiens)	0.00512
CC(=O)NC1(C(F)(F)F)NC(=O)N(CC(C)C)C1=O (centres undefined)	Alpha-2C adrenergic receptor (Homo sapiens)	0.00596
C=C(C)COc1ccc(-c2nc(N)ncc2-c2ccc(OC)cc2)c(O)c1	Alpha-2C adrenergic receptor (Homo sapiens)	0.00614
O=C(Cn1ncc2c(=O)oc3ccccc3c21)Nc1nc2ccccc2s1	Alpha-2C adrenergic receptor (Homo sapiens)	0.00615

----------
Each entry below carries its reported inhibition.
Test: inhibitors of TNFa-induced NFkB p65 translocation, primary screen, imaging, HUVEC, MLSMR starter and 10KST1 sets (AID 438);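 note: compound added about 3h40 before a 20 min TNFalpha stimulation; signal is the nuclear over cytoplasmic p65 intensity ratio per well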
Conditions: HUVEC TNFa-induced p65 nuclear translocation; at 2 µM, active compounds read high, 0% TNFa-plus-vehicle, 100% no-TNFa wells

Molecule Smiles	Unit Name	inhibition
O=C(CSc1ccc(-c2ccccc2)nn1)N1CCOCC1	%	-5.6
Fc1cccc2sc(Nc3nnc(-c4ccco4)o3)nc12	%	-3.6
CCOc1ccc2[nH]cc(C(=O)N3CCN(CC)CC3)c(=O)c2c1	%	-16.7

----------
Each entry below carries its reported inhibition.
Experiment: endothelial E-selectin expression blockers – imaging, HUVEC, immunofluorescence, MLSMR starter and 10KST1 sets, primary screen (AID 487);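 note: signal is fraction of cell area covered by stained E-selectin grains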
Conditions: HUVEC TNFalpha-induced E-selectin immunofluorescence imaging, at 2 µM; active compounds read high

Compound	inhibition [%]
Cc1[nH]n(C(N)=S)c(=O)c1C(c1ccccc1)C(C#N)C#N (stereo not given)	32.6
Cc1cccn2c(=O)c3cc(C#N)c(=NC(=O)c4ccncc4)n(Cc4ccco4)c3nc12	-36.9
CCOc1cc2[nH]c(=S)n(CC3CCCO3)c(=O)c2cc1OCC (stereo not given)	-51.1
COc1ccc(CNC(=O)CCc2nc(-c3ccccc3F)no2)c(OC)c1	37.2
COc1ccc(OC)c(NS(=O)(=O)Cc2ccccc2)c1	-73.7
CCOc1ccc(S(=O)(=O)Nc2cccc(Cl)c2)cc1	-10.2
O=c1cc(CN2CCN(c3ccc(F)cc3)CC2)nc2sccn12	-8.5
O=C(Cn1cnc2ccccc2c1=O)NCCC(=O)N1CCN(Cc2ccccc2)CC1	-0.7
CCOC(=O)N1CCN(C(=O)COc2cc(=O)n(C)c3ccccc23)CC1	1.7
CC(N)C12CC3CC(C1)CC(C(C)N)(C3)C2 (stereo not given)	-14.3
O=S(=O)(c1ccc(F)cc1)N1CCC(N2CCCC2)CC1	12.6
COc1ccc(Cl)c(N2CCN(CCCNC(=O)Nc3ccc(C)cc3)CC2)c1	16
COc1cc(C(=O)N(C)c2nnc(-c3cccnc3)s2)cc(OC)c1OC	3.6
O=C(Nc1ccc2c(c1)OCO2)N1CCN(c2ncccn2)CC1	-38.9
CC(=O)Nc1ccc(NC(=O)c2cc(C)nn2-c2ccccc2)cc1	-36.4
COc1ccc(/C=N/n2c(SC)nnc2-c2ccccc2)cc1C	-68.1
CSc1nsc(SCC(=O)N2CCc3ccccc32)n1	-98.3
CCC(=O)N1CCN(CCN=CC2=C(O)CC(C)(C)CC2=O)CC1	5.8
Nc1[nH]nc2nc(N3CCCC3)nc(-c3ccccc3)c12	-53
CC(=O)N1CCc2c(sc(NC(=O)c3ccc(S(=O)(=O)N(C)C)cc3)c2C#N)C1	7.9
